Source: ChEMBL document CHEMBL1142249

Exercise: for every item that follows, state its recorded AUC(0-t) at 6 h.
assay: AUC (0 to 6 hrs) in BALB/c mouse at 1.0 mmol/kg, po; assay type: ADME, organism-based; design: dose 1 mmol/kg, time < 6 hr, route oral; details: plasma
Kindly report the value followed by its unit.

Asked: Return AUC(0-t) at 6 h for the following molecule: O=C1[C@@H]2C3CCC(O3)[C@@H]2C(=O)N1c1ccc([N+](=O)[O-])c2ccccc12
Given back: 11.4 µM·h

Asked: Specify reported AUC(0-t) at 6 h for the molecule shown: O=C1[C@H]2C3CCC(C3)N2C(=O)N1c1cccc(C(F)(F)F)c1 (some centres undefined)
Given back: 11.4 µM·h

Asked: Indicate its recorded AUC(0-t) at 6 h; the molecule in question is CC(O)(CS(=O)(=O)c1ccc(F)cc1)C(=O)Nc1ccc(C#N)c(C(F)(F)F)c1 (centres undefined) [BICALUTAMIDE]
Given back: 786 µM·h

Asked: Name the recorded AUC(0-t) at 6 h of the molecule listed here: O=C1[C@@H]2C3CCC(C3)[C@@H]2C(=O)N1c1cccc(C(F)(F)F)c1
Given back: 0.056 µM·h

====

experiment: Drug level in human CWR22R cells xenografted mouse plasma at 90 mg/kg, po after 24 hrs on day 60; type: ADME, organism-based; set-up: dose 90 mg/kg, route oral; conditions: read-out: Drug uptake
assay_metric: concentration at 24 h (µM)
The response must be a number in µM with no trailing unit.

Asked: For the compound CC12C[C@H](O)C(C)(O1)[C@@H]1C(=O)N(c3ccc(C#N)c(I)c3)C(=O)[C@@H]12 (stereo partly specified) , report concentration at 24 h.
Given back: 23.6

====

Field: pIC50. Provide a value for each of the compounds that follow.
Target: Androgen receptor (Homo sapiens)
Sequence (P10275 whole entry): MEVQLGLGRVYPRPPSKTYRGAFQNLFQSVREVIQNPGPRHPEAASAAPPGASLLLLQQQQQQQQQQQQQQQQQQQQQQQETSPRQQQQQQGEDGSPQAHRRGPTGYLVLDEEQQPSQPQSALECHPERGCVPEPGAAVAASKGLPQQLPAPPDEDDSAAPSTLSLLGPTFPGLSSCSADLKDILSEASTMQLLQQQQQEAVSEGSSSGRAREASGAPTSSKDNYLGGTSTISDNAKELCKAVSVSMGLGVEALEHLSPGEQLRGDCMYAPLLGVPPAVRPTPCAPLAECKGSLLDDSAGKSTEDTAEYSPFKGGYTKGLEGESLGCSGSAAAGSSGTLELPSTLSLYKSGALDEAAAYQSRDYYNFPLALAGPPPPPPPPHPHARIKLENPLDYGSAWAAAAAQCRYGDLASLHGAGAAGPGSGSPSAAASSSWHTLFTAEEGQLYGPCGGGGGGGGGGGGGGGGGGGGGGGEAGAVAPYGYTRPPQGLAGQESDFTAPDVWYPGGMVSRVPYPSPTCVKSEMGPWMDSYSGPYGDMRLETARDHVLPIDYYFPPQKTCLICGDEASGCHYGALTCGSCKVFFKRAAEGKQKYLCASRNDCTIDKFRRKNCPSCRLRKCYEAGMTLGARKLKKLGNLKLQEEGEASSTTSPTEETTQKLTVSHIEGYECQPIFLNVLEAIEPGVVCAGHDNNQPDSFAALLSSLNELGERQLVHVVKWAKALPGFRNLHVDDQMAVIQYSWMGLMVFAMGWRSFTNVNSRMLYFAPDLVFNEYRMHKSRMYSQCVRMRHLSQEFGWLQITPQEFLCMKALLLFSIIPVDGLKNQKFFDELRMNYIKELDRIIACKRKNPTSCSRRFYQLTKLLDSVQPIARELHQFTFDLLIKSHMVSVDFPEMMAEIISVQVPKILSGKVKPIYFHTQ
Lab note: report pIC50 as minus log10 of the concentration in molar units, number only.

Asked: Determine its reported pIC50: CC12CCC(C)(O1)[C@H]1C(=O)N(c3c(N)ccc4ncsc34)C(=O)[C@H]12
Given back: 6.92

Asked: Given the compound O=C1[C@@H]2C3CCC(O3)[C@@H]2C(=O)N1c1ccc(Br)c2ccccc12 , write its reported pIC50.
Given back: 6.17

Asked: Query pIC50 for CC12CCC(C)(O1)[C@H]1C(=O)N(c3ccc(C#N)c(I)c3)C(=O)[C@H]12
Given back: 8.15

Asked: Could you please provide reported pIC50 for CSc1cc(N2C(=O)[C@@H]3[C@H](C2=O)C2(C)CCC3(C)O2)ccc1C#N ? Thanks!
Given back: 7.72

Asked: Specify pIC50 for CC12CCC(C)(O1)[C@H]1C(=O)N(c3ccc(C#N)n4nccc34)C(=O)[C@H]12 and stop.
Given back: 7.06

Asked: Tell me pIC50 reported for CC12C[C@@H](O)C(C)(O1)[C@H]1C(=O)N(c3ccc(C#N)c(I)c3)C(=O)[C@H]12 (stereo partly drawn)
Given back: 7.72

Asked: Name the recorded pIC50 of the compound listed here: O=C1[C@@H]2C3CCC(O3)[C@@H]2C(=O)N1c1cccc(C(F)(F)F)c1
Given back: 4.94

Asked: Supply measured pIC50 of O=C1[C@@H]2C3CCC(O3)[C@@H]2C(=O)N1c1ccc(Cl)c([N+](=O)[O-])c1 in your reply.
Given back: 5.94

Asked: Output pIC50 of CC(C)(C)OC(=O)N1CC2CC1[C@@H]1C(=O)N(c3ccc(C#N)c(C(F)(F)F)c3)C(=O)N21 (stereo partly drawn)
Given back: 6.11

Asked: Output pIC50 of CC12C[C@H](O)C(C)(O1)[C@@H]1C(=O)N(c3ccc(C#N)c(I)c3)C(=O)[C@@H]12 (stereo partly drawn)
Given back: 8.00

Asked: Using known records, supply pIC50 for CC12CCC(C)(O1)[C@H]1C(=O)N(c3ccc(C#N)c(C(F)(F)F)c3)C(=O)[C@H]12
Given back: 8.15

Asked: Using the record for CC12CCC(C)(O1)[C@H]1C(=O)N(c3c(N)ccc4nccn34)C(=O)[C@H]12 , state its measured pIC50.
Given back: 7.15

Asked: Give pIC50 for Cc1ccc(N2C(=O)[C@@H]3C4CCC(O4)[C@@H]3C2=O)cc1Cl
Given back: 5.64

Asked: Hello, please tell me recorded pIC50 for this one: CC12CCC(C)(O1)[C@H]1C(=O)N(c3ccc(C#N)c4nsnc34)C(=O)[C@H]12
Given back: 7.80

Asked: Let me know recorded pIC50 for N#Cc1ccc(N2C(=O)[C@@H]3C4CCC(O4)[C@@H]3C2=O)cc1C(F)(F)F , thanks.
Given back: 5.54

Asked: Determine from records and report pIC50 for CC12CCC(C)(O1)[C@H]1C(=O)N(c3cnc(C#N)c(Cl)c3)C(=O)[C@H]12
Given back: 7.42

Asked: Kindly indicate its recorded pIC50. Item: Cc1cc(N2C(=O)[C@@H]3C4CCC(O4)[C@@H]3C2=O)ccc1Cl
Given back: 6.30

Asked: // Input: O=C1[C@@H]2C3CCC(O3)[C@@H]2C(=O)N1c1ccc(Cl)c(C(F)(F)F)c1 . Output its pIC50 only.
Given back: 5.48

Asked: Name the recorded pIC50 of the item O=C1[C@@H]2C3CCC(O3)[C@@H]2C(=O)N1c1ccc(Cl)c(Cl)c1 in your answer.
Given back: 6.32

Asked: Write down pIC50 measured for item CC12CCC(C)(O1)[C@H]1C(=O)N(c3ccc([N+](=O)[O-])c(C(F)(F)F)c3)C(=O)[C@H]12
Given back: 7.96

Asked: Give reported pIC50 value for O=C1[C@@H]2C3CCC(O3)[C@@H]2C(=O)N1c1ccc(I)c(Cl)c1
Given back: 6.46

Asked: Report measured pIC50; entry is CC12CCC(C)(O1)[C@H]1C(=O)N(c3cccc(C(F)(F)F)c3)C(=O)[C@H]12
Given back: 7.44

Asked: Retrieve pIC50 measured for COc1cc(N2C(=O)[C@@H]3[C@H](C2=O)C2(C)CCC3(C)O2)ccc1-c1cnco1 and print it.
Given back: 7.70

Asked: Please list pIC50 recorded for the compound CC12CCC(C)(O1)[C@H]1C(=O)N(c3cc(Cl)cc(Cl)c3)C(=O)[C@H]12
Given back: 7.80

Asked: Indicate the recorded pIC50 value for this compound: CC12CCC(O1)[C@H]1C(=O)N(c3cccc(C(F)(F)F)c3)C(=O)[C@H]12 (stereo partly drawn)
Given back: 6.46

Asked: Indicate its recorded pIC50; the compound in question is O=C1[C@H]2C3CCC(C3)N2C(=O)N1c1cccc(C(F)(F)F)c1 (stereo partly drawn)
Given back: 6.89

Asked: Input CC12CCC(C)(O1)[C@H]1C(=O)N(c3ccc([N+](=O)[O-])c4c(Br)cccc34)C(=O)[C@H]12 , output reported pIC50.
Given back: 7.40
